# measured-target: T1, human CTLA4-Fc (R&D Systems, #7268-CT) (human, UniProt P16410 36-162)
# T1 construct: Bought; not shown: Fc part
# T1 sequence (P16410 36-162 limits assumed): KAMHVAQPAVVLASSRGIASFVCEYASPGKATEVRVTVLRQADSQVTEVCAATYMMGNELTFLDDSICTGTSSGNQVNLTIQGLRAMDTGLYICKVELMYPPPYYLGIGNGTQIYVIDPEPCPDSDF
# experimental-details: low density antigen binding ELISA, human CTLA4-Fc coated at 1 µg/mL, anti-human kappa-HRP
endpoint-name: EC50

A selection of reference data follows.
Antibody 2-2 (antibody, V domains shown, Fc region with S239D and I332E; also called version of Antibody 2 having a S239D mutation and an I332E mutation in the Fc region; unmasked Antibody 2-2) VL: EIVLTQSPDFQSVTPKEKVTITCSANSALSYMYWYQQKPDQSPKLWVHGTSNLASGVPSRFSGSGSGTDFTLTINSLEAEDAATYYCHHWSNTQWTFGGGTKVEIKR VH: QVQLVQSGAEVKKPGSSVKVSCKASGYTFTNYFMNWVRQAPGQGLEWMGRVDPEQGRADYAEKFKKRVTITADKSTSTAYMELSSLRSEDTAVYYCARRAMDNYGFAYWGQGTLVTVSSA | 0.39 nM
Antibody 1-1 (antibody, V domains shown, Humanized; wild type Fc region; Variable domains are stated for Antibody 1; full chains are not tied to the label Antibody 1-1; also called version of Antibody 1 having a wild type Fc region) VL: DIVMTQTPLSLSVTPGQPASISCRSSQSLLNSDGNTYLYWYLQKPGQSPQLLIYLVSKLGSGVPNRFSGSGSGTDFTLKISRVEAEDVGVYYCVQGTHDPWTFGGGTKVEIKR VH: QVQLQESGPGLVKPSETLSLTCSVTYHTITSGYDWTWIRKPPGKGMEWIGYISYSGNTNYNPSLKSRVTISRDTSKNQFFLKLSSVTAADTAVYYCASMMVPHYYVMDAWGQGTLVTVSSA | 0.32 nM

Here's the next entry for you.
Q: Would you mind telling me what EC50 value was observed for Antibody 2-4 (antibody, V domains shown, Fc with S239D, I332E, A330L; also called version of Antibody 2 having S239D, I332E, and A330L mutations in the Fc region) VL: EIVLTQSPDFQSVTPKEKVTITCSANSALSYMYWYQQKPDQSPKLWVHGTSNLASGVPSRFSGSGSGTDFTLTINSLEAEDAATYYCHHWSNTQWTFGGGTKVEIKR VH: QVQLVQSGAEVKKPGSSVKVSCKASGYTFTNYFMNWVRQAPGQGLEWMGRVDPEQGRADYAEKFKKRVTITADKSTSTAYMELSSLRSEDTAVYYCARRAMDNYGFAYWGQGTLVTVSSA ?
Ans: 0.4 nM

Data provenance is patent US20220073613A1.
